- Tested on: Spodoptera frugiperda
- TEST_NAME: Growth inhibitory activity against Spodoptera frugiperda (fall armyworm) larvae fed with compound containing diet assessed as growth index at 35 ug/ml (reference value: 0.95 +/-0.02 no_unit)
- Format: functional
MEASURE: Growth_index
Answers are plain numbers.

Example entries begin here.
>  <COMPOUND>
C[C@@H]1O[C@@H](O[C@@H]2[C@@H](O)[C@H](OCCc3ccc(O)c(O)c3)O[C@H](CO)[C@H]2OC(=O)/C=C/c2ccc(O)c(O)c2)[C@H](O)[C@H](O)[C@H]1O [ACETOSIDE]

>  <Growth_index>
0.09

$$$$
>  <COMPOUND>
CC(C)c1ccc2c(c1)CC[C@H]1[C@](C)(CO)CCC[C@]21C

>  <Growth_index>
0.71

$$$$
>  <COMPOUND>
C=C[C@]1(C)CC[C@H]2C(=CC[C@@H]3[C@](C)(CO)CC[C@@H]4C[C@@]432)C1

>  <Growth_index>
0.09

$$$$

# context switch: different compound, same Growth_index
The recorded Growth_index for `C=CC(C)(C)C1=C(O)C(=O)c2ccccc2C1=O` is 0.09
